molecular target: RIPK1 (Homo sapiens (Human), UniProt Q13546); experiment: RIPK1-ADP-Glo Enzymatic Assay; details: recombinant GST-RIPK1 kinase domain (residues 1-327), 25 nM, ten-point titration, 30 minutes pre-incubation
Sequence (Q13546 1-327): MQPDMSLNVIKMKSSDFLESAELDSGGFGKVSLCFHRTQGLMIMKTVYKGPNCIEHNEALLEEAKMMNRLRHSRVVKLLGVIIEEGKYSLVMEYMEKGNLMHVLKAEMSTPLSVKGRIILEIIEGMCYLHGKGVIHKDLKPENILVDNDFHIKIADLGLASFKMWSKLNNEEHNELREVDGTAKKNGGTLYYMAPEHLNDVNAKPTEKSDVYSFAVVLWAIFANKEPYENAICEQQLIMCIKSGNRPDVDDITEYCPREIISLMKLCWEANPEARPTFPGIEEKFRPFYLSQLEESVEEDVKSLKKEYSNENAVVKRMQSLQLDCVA
READOUT: EC50 (nM)
Give the value in nM but do not write nM after it.

Task: Supply EC50 value. Item: CC(F)(F)c1ccnc(N2CCC3(CC2)CN2CC[C@@H](c4cc(F)cc(F)c4)N2C3=O)n1
Output: 200

Task: Supply EC50 value. Item: O=C(c1cc(F)ccc1Cl)N1CCC2(CC1)CN1CC[C@@H](c3cc(F)cc(F)c3)N1C2=O
Output: 50

Task: Supply EC50 value. Item: Cn1nccc1-c1cc(N2CCC3(CC2)CN2CC[C@@H](c4cc(F)cc(F)c4)N2C3=O)ncn1
Output: 15

Task: Supply EC50 value. Item: O=C1N2[C@H](c3cc(F)cc(F)c3)CCN2CC12CCN(c1cnc(-c3ccccc3Cl)cn1)CC2
Output: 25

Task: Supply EC50 value. Item: Cc1cc2c(N3CCC4(CC3)CN3CC[C@@H](c5cc(F)cc(F)c5)N3C4=O)ncnc2s1
Output: 38

Task: Supply EC50 value. Item: Cn1ccc(C(=O)N2CCC3(CC2)CN2CC[C@@H](c4cc(F)cc(F)c4)N2C3=O)n1
Output: 594

Task: Supply EC50 value. Item: O=C1N2[C@H](c3cc(F)cc(F)c3)CCN2CC12CCN(c1ccnc(C3CC3)n1)CC2
Output: 59

Task: Supply EC50 value. Item: Cc1cc(N2CCC3(CC2)CN2CC[C@@H](c4cc(F)cc(F)c4)N2C3=O)nc(C(F)(F)F)n1
Output: 274

Task: Supply EC50 value. Item: N#Cc1ccc(N2CCC3(CC2)CN2CC[C@@H](c4cc(F)cc(F)c4)N2C3=O)n2nccc12
Output: 6

Task: Supply EC50 value. Item: Cc1cnn(-c2ccnc(N3CCC4(CC3)CN3CC[C@@H](c5cc(F)cc(F)c5)N3C4=O)c2)c1
Output: 98

Task: Supply EC50 value. Item: O=C1N2[C@H](c3cc(F)cc(F)c3)CCN2CC12CCN(c1ccc(Br)c3ccnn13)CC2
Output: 7.5

Task: Supply EC50 value. Item: O=C(c1c(F)ccc(F)c1F)N1CCC2(CC1)CN1CC[C@@H](c3cc(F)cc(F)c3)N1C2=O
Output: 31

Task: Supply EC50 value. Item: O=C(c1cccc(F)c1Cl)N1CCC2(CC1)CN1CC[C@@H](c3cc(F)cc(F)c3)N1C2=O
Output: 36

Task: Supply EC50 value. Item: Cc1cc(N2CCC3(CC2)CN2CC[C@@H](c4cc(F)cc(F)c4)N2C3=O)ccn1
Output: 501

Task: Supply EC50 value. Item: COc1nc(N2CCC3(CC2)CN2CC[C@@H](c4cc(F)cc(F)c4)N2C3=O)ncc1F
Output: 22

Task: Supply EC50 value. Item: Cc1cc(F)cc(C(=O)N2CCC3(CC2)CN2CC[C@@H](c4cc(F)cc(F)c4)N2C3=O)c1
Output: 18
